- Target under test: Cytochrome P450 3A4 (Homo sapiens)
- Method description: Cytochrome panel assay with activity outcomes
- Run conditions: recombinant CYP, pro-luciferin dealkylation, luminescence, p450-cyp3a4; series mostly up to 57.1 µM
In all, about 16,000 compounds went through this assay and about 5,100 (32%) were called active. About 25% were inconclusive and are not listed. Calls follow the shape of the dose curve; as a rule, active = well fitted curve in the direction sought with a large enough effect; inconclusive = small, poorly fitted or top-dose-only effect, or effect the other way; inactive = no such curve, though single readings can be large or run the other way. The list shows a part of the results.
Respond using exactly one of the listed classes: Y (active), N (inactive)

query: For Cc1cccc(-n2nc([N+](=O)[O-])c(=NCc3cccnc3)n2O)c1 , what call appears in the results of this test?
result: Y

query: How was COC(=O)C1CSC(C(=O)OC)N1C(=O)Nc1c(C)cccc1C (stereo not drawn) classified in this test?
result: N

query: How was Cc1c(C(=O)NN2CCN(C)CC2)cccc1[N+](=O)[O-] classified in this test?
result: N

query: Lab log entry: C#CCn1c(=O)c2c(ncn2C)n(C)c1=O — outcome as called in the assay?
result: N

query: Tell me the recorded outcome of this test for Clc1ccccc1-c1cncnc1NCc1cccs1 .
result: Y

query: GET /call?item= COc1ccccc1-c1cncnc1NCc1cccs1 returns the recorded outcome of this test.
result: Y

query: Hi, do you know how N#C/C(=C\c1ccc(O)c(O)c1)C(=O)NCCCc1ccccc1 came out in this test?
result: Y

query: Per the records of this test, what outcome belongs to COC(=O)[C@@]1(Cc2ccc(F)cc2)[C@H]2c3cc(C(=O)N(C)C)n(Cc4ccc(C)c(F)c4F)c3C[C@H]2CN1C(=O)c1ccccc1 ?
result: Y

query: Recorded test call requested for Cc1ccc(NC(=O)NNC(=O)C2CC(c3cccnc3)=NO2)cc1 (stereo not drawn)
result: N

query: So what was the verdict on Cc1cc(/C=C(/C#N)C(=O)Nc2ccccc2)c(C)n1-c1cccnc1 in this test?
result: N

query: Please let me know the test result on file for O=C1[C@H]2[C@H]3[C@H](O)[C@H](O)C/C(=N/OCc4ccccc4)[C@@H]3CC[C@@H]2C(=O)N1Cc1ccc2c(c1)OCO2 .
result: Y

query: Give the logged outcome of this assay for the following molecule: CCCCCSc1nnc(C)c(=O)[nH]1
result: N

query: What outcome does the record of this test show for O=Nc1c(-c2c(O)[nH]c3ccccc23)[nH]c2ccccc12 ?
result: Y

query: What is the recorded call for this molecule in the test? COc1ccc(Cc2nnc(NC(=O)c3cccc([N+](=O)[O-])c3C)s2)cc1
result: Y

query: Hi, sorry to bother you, what did the test record for COC(=O)[C@@]1(Cc2ccc(F)cc2)[C@H]2c3cc(C(=O)N4CCCC4)n(Cc4ccc(C)c(F)c4F)c3C[C@H]2CN1C(=O)c1ccccc1 ?
result: Y

query: Test call, this molecule: N#C/C(=C\c1ccc(O)c(O)c1)C(=O)Nc1ccccc1
result: Y

query: Would you mind telling me which call this test gave COc1cccc(-c2cc(NCc3cccnc3)ncn2)c1 ?
result: Y

query: Fill in: this test's call for COc1ccc(CNC(=O)C2CC(c3ccc(OC)cc3)=NO2)cc1 (stereo not drawn) is ___
result: N

query: What outcome does the record of this test show for CC(=O)c1cn(CC(=O)Nc2c(C)cccc2C)c2ccccc12 ?
result: Y

query: Short answer needed: outcome of this test for CC(C)CO/N=C1/C[C@@H](O)[C@@H](O)[C@@H]2[C@@H]3C(=O)N(Cc4ccc5c(c4)OCO5)C(=O)[C@H]3CC[C@H]12 ?
result: Y

query: Each molecule tested received a call. Report the one for c1ccc2c(Nc3ccncc3)nc(-c3ccc4c(c3)OCO4)nc2c1 .
result: Y

query: Which outcome did this test record for the molecule Cc1cc(C)nc(NS(=O)(=O)c2ccc(N)cc2)n1 ?
result: N

query: Tell me the recorded outcome of this test for c1cncc(-c2cc(NCc3cccs3)ncn2)c1 .
result: Y

query: # fetch the recorded call for COc1cc(OC)cc(C(=O)NCC(=O)OC2CCOC2=O)c1 (stereo not drawn) here
result: Y

query: What did the test return for N#C/C(=C\c1ccc(O)c(O)c1)C(=O)NCCc1ccccc1 ?
result: Y

query: GET /call?item= O=C(O)CC/C=C\CC[C@H]1[C@@H](N2CCCCC2)[C@@H](O)C[C@@H]1OCc1ccc(-c2ccccc2)cc1 returns the recorded outcome of this test.
result: N

query: Call for entry Cc1ccc(N2C(=O)CC(c3ccsc3)C3=C2CC(C)(C)CC3=O)cc1 (stereo not drawn) :
result: Y

query: Please indicate how the test categorized CC1(C)CCCN(C(=O)c2coc(=O)c(Br)c2)C1 .
result: N

query: Which outcome was entered for the molecule Cc1ccccc1-c1cncnc1NCc1cccs1 in this test?
result: Y

query: For this molecule, state the assay outcome: O=C1C=C(NCCc2cc(Br)c(O)c(Br)c2)C(=O)c2ncccc21
result: Y

query: Per the assay record, what outcome was assigned to COc1ccc(CNC(=O)C2CC(c3cccc([N+](=O)[O-])c3)=NO2)cc1 (stereo not drawn) ?
result: Y

query: Check the results log: what was the call for COc1ncc2ncc(=O)n(Cc3ccc(F)cc3)c2n1 ?
result: Y

query: What did the test return for O=C(CCn1nc(-c2ccc(Cl)cc2)ccc1=O)NCc1ccccn1 ?
result: Y

query: I'd appreciate the recorded outcome for O=C1O/C(=C\Br)CC[C@@H]1c1cccc2ccccc12 from this test.
result: Y

query: // outcome(item) with item = COC(=O)[C@@]1(Cc2ccccc2)[C@H]2c3cc(C(=O)N4CCCC4)n(Cc4ccc(S(C)(=O)=O)cc4)c3C[C@H]2CN1C(=O)c1ccccc1
result: Y

query: Kindly provide the recorded test outcome for the following molecule: COc1ccc(C(=O)c2cnc3ccccc3c2-c2ccccc2)cc1
result: Y

query: Hi, do you know how CC(O)CN(CCC(N)=O)CCC(N)=O (stereo not drawn) came out in this test?
result: N

query: Hi, sorry to bother you, what did the test record for COc1ncc2ncc(=O)n(C)c2n1 ?
result: N

query: I'd appreciate the recorded outcome for O=C(O)/C=C\C(=O)NCc1ccccc1 from this test.
result: N

query: What outcome does the record of this test show for O=C(CC(=O)c1ccncc1)c1ccccc1 ?
result: Y

query: Would you mind telling me which call this test gave CN(C)CCNC(=O)Cn1nc(-c2ccc(Cl)cc2)ccc1=O ?
result: N

query: Any idea what this test logged for Cc1ccccc1N1CCN(S(=O)(=O)C[C@@]23CC[C@H](C[C@H]2NC(=O)[C@@H](N)CCS(C)(=O)=O)C3(C)C)CC1 ?
result: Y

query: Test call, this molecule: COc1ccccc1-c1cc(NCc2cnc(C)cn2)ncn1
result: N

Numbers sourced from PubChem BioAssay AID1851.
